# measured-target: HDAC1 (histone deacetylase 1) (Homo sapiens, UniProt Q13547)
# assay-text: Inhibition of recombinant human HDAC1 at 1 uM using ZMAL as substrate incubated for 90 mins by fluorescence based micro plate assay relative to control
# condition-parameters: recombinant human HDAC1, probe ZMAL
Exercise: for every item that follows, state its recorded inhibition at 1.5 h, 1 µM.
State the value, then name its unit.

Lookup: For O=C(NO)c1ccc(Cl)c(C(=O)Nc2ccc(Cl)cc2)c1 , what is its reported inhibition at 1.5 h, 1 µM?
Found: 20%

Lookup: For COc1ccc(NC(=O)c2cc(C(=O)NO)ccc2OC)cc1 , what is its reported inhibition at 1.5 h, 1 µM?
Found: 2%

Lookup: For O=C(NO)c1ccc(Cl)c(NC(=O)c2ccc(-c3ccccc3)cc2Cl)c1 , what is its reported inhibition at 1.5 h, 1 µM?
Found: 7%

Lookup: For COc1ccc(C(=O)NO)cc1C(=O)Nc1cccc(Cl)c1 , what is its reported inhibition at 1.5 h, 1 µM?
Found: 0%

* * *

# measured-target: UniProtKB Q9UBN7
# assay-text: Inhibition of recombinant human HDAC6 at 100 uM using ZMAL as substrate incubated for 90 mins by fluorescence based micro plate assay relative to control
# condition-parameters: recombinant human HDAC6, probe ZMAL
measurement-type: inhibition at 1.5 h, 100 µM (%)
Record the value in %, omitting the unit from your answer.

Lookup: Request body: readout inhibition at 1.5 h, 100 µM, system UniProtKB Q9UBN7, query COc1ccc(Cn2ccc3ccc(C(=O)NO)cc32)cc1 . Return the value.
Found: 41

* * *

# measured-target: Protein deacetylase HDAC6 (Homo sapiens)
# Sequence (Q9UBN7 whole entry): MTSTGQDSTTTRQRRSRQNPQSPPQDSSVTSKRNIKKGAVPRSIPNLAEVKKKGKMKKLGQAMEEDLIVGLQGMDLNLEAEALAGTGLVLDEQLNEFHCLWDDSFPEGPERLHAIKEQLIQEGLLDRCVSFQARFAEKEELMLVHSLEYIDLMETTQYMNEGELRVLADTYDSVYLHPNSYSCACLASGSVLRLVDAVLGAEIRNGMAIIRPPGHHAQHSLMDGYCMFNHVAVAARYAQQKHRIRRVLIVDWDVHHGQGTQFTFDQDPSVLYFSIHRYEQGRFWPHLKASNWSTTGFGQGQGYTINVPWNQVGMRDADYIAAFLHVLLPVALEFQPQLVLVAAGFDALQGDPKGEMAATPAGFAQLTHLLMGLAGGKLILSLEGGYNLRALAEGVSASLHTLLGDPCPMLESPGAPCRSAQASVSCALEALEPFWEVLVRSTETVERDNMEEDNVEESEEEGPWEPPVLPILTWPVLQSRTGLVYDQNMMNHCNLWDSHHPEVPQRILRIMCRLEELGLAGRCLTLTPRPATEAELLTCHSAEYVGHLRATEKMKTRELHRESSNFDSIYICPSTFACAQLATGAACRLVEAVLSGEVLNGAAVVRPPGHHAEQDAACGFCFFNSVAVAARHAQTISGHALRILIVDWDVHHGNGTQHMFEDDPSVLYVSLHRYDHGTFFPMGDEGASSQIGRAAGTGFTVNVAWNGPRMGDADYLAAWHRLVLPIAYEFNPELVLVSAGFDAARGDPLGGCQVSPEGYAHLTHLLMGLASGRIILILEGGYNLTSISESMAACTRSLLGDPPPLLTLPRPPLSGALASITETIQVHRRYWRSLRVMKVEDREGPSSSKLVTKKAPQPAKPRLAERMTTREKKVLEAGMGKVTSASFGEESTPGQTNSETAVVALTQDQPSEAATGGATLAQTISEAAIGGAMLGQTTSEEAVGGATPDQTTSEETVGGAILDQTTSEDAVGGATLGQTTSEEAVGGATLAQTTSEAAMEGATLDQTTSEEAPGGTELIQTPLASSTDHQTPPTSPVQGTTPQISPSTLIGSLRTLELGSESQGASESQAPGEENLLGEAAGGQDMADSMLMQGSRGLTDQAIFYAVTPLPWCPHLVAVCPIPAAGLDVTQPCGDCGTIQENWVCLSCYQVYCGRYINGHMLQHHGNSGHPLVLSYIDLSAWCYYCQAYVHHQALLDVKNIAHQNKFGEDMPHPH
# assay-text: Inhibition of recombinant human HDAC6 using ZMAL as substrate incubated for 90 mins by fluorescence based micro plate assay
pIC50: −log10 of the molar value.
Class boundaries, taken from values of pIC50, are as follows: low bin (below 6), mid bin (6 to below 7), high bin (7 or more)

Lookup: Lab log: CCCOc1ccc(C(C)=O)cc1C(=O)Nc1cc(C(=O)NO)ccc1C — assign pIC50 category
Found: high bin

Lookup: Lab log: Cc1ccc(C(=O)NO)cc1C(=O)Nc1ccc(Cl)cc1 — assign pIC50 category
Found: mid bin

Lookup: Lab log: COc1ccc(C(C)=O)cc1NC(=O)c1cc(C(=O)NO)ccc1OC — assign pIC50 category
Found: high bin

Lookup: Lab log: COc1ccc(C(=O)NO)cc1NC(=O)c1ccc(-c2ccccc2)cc1 — assign pIC50 category
Found: mid bin

Lookup: Lab log: COc1ccc(C(=O)NO)cc1NC(=O)c1cccc2c1oc1ccccc12 — assign pIC50 category
Found: mid bin

Lookup: Lab log: O=C(NO)c1ccc(Cl)c(NC(=O)c2ccc(-c3ccccc3)cc2Cl)c1 — assign pIC50 category
Found: low bin

Lookup: Lab log: CCOc1ccc(C(=O)NO)cc1NC(=O)c1ccc(Cl)cc1Cl — assign pIC50 category
Found: low bin

* * *

# Test system: Schistosoma mansoni
# assay-text: Antischistosomal activity against Schistosoma mansoni schistosomula incubated for 72 hrs by Alamar Blue assay
# Assay type: functional, organism-based
measurement-type: EC50 (µM)
Record the value in µM, omitting the unit from your answer.

Lookup: For COc1ccc(C(=O)NO)cc1NC(=O)c1cccc2c1oc1ccccc12 , what is its reported EC50?
Found: 3.5

* * *

# measured-target: HDAC6 (protein deacetylase HDAC6) (Homo sapiens)
# Sequence (Q9UBN7 whole entry): as above
# assay-text: Inhibition of recombinant human HDAC6 at 10 uM using ZMAL as substrate incubated for 90 mins by fluorescence based micro plate assay relative to control
# condition-parameters: recombinant human HDAC6, probe ZMAL
measurement-type: inhibition at 1.5 h, 10 µM
State the value, then name its unit.

Lookup: For COc1ccc(C(=O)NO)cc1NC(=O)c1ccc(-c2ccccc2)cc1Cl , what is its reported inhibition at 1.5 h, 10 µM?
Found: 46%

* * *

# System: HEK293
# assay-text: Cytotoxicity against human HEK293 assessed as reduction in cell viability at 50 uM measured for 24 hrs by Alamar Blue assay
# Assay type: cell-based
# condition-parameters: hek293, 24 h
Exercise: for every item that follows, state its recorded Activity.
Record the value in %, omitting the unit from your answer.

Lookup: For COc1ccc(NC(=O)c2cc(C(=O)NO)ccc2OC)cc1 , what is its reported Activity?
Found: 94.5

Lookup: For CCOc1ccc(C(C)=O)cc1NC(=O)c1cc(C(=O)NO)ccc1Cl , what is its reported Activity?
Found: 60.6

Lookup: For CCOc1ccc(C(C)=O)cc1NC(=O)c1cc(C(=O)NO)ccc1OC , what is its reported Activity?
Found: 59.9

Lookup: For O=C(NO)c1ccc(Cl)c(NC(=O)c2ccc(-c3ccccc3)cc2Cl)c1 , what is its reported Activity?
Found: 77

Lookup: For O=C(NO)c1ccc(Cl)c(NC(=O)c2ccc(-c3ccccc3)cc2)c1 , what is its reported Activity?
Found: 81.7

Lookup: For CCOc1ccc(C(=O)NO)cc1NC(=O)c1ccc(OC)cc1 , what is its reported Activity?
Found: 88.7

Lookup: For CCOc1ccc(C(C)=O)cc1NC(=O)c1cccc(C(=O)NO)c1 , what is its reported Activity?
Found: 81.2

Lookup: For COc1ccc(C(=O)NO)cc1NC(=O)c1ccc(OC(C)C)cc1 , what is its reported Activity?
Found: 93.1

Lookup: For O=C(NO)c1ccc(Cl)c(NC(=O)c2ccc(-c3ccc(F)cc3)cc2Cl)c1 , what is its reported Activity?
Found: 82.2

Lookup: For O=C(NO)c1ccc(Cl)c(C(=O)Nc2ccc(Cl)cc2)c1 , what is its reported Activity?
Found: 69.5

Lookup: For COc1ccc(C(=O)NO)cc1NC(=O)c1cccc2cccnc12 , what is its reported Activity?
Found: 77

Lookup: For CCCOc1ccc(C(C)=O)cc1C(=O)Nc1cc(C(=O)NO)ccc1C , what is its reported Activity?
Found: 68.8

Lookup: For Cc1ccc(C(=O)NO)cc1C(=O)Nc1ccc(Cl)cc1 , what is its reported Activity?
Found: 67.6

Lookup: For COc1ccc(C(=O)NO)cc1C(=O)Nc1ccc(Cl)cc1 , what is its reported Activity?
Found: 27.5

Lookup: For COc1ccc(C(=O)NO)cc1C(=O)Nc1ccc(Cl)cc1Cl , what is its reported Activity?
Found: 58.3

Lookup: For CCOc1ccc(C(=O)NO)cc1NC(=O)c1ccc(Cl)cc1Cl , what is its reported Activity?
Found: 86.8

Lookup: For COc1ccc(C(C)=O)cc1NC(=O)c1cc(C(=O)NO)ccc1OC , what is its reported Activity?
Found: 66.2

Lookup: For COc1ccc(C(=O)NO)cc1NC(=O)c1ccc(-c2ccc(F)cc2)cc1Cl , what is its reported Activity?
Found: 83.5

Lookup: For COc1ccc(C(=O)NO)cc1C(=O)Nc1cccc(Cl)c1 , what is its reported Activity?
Found: 88.2

Lookup: For COc1ccc(C(=O)NO)cc1NC(=O)c1cccc2c1/C(=N/O)c1ccccc1-2 , what is its reported Activity?
Found: 76.6

Lookup: For COc1ccc(C(=O)NO)cc1NC(=O)c1ccc2[nH]c3c(c2c1)CN(C)CC3.Cl , what is its reported Activity?
Found: 71.1

Lookup: For COc1ccc(Cn2ccc3ccc(C(=O)NO)cc32)cc1 , what is its reported Activity?
Found: 96.8

Lookup: For O=C(C1CCCCC1)N1CC(=O)N2CCc3ccccc3C2C1 (configuration not stated) [PRAZIQUANTEL] , what is its reported Activity?
Found: 99.3

Lookup: For COc1ccc(C(=O)NO)cc1C(=O)Nc1ccc2sccc2c1 , what is its reported Activity?
Found: 95.6

Lookup: For COc1ccc(C(=O)NO)cc1NC(=O)c1cccc(OCc2ccccc2)c1 , what is its reported Activity?
Found: 95.4

Lookup: For Cc1ccc(C(=O)NO)cc1NC(=O)c1cccc(OCc2c(Cl)cccc2Cl)c1 , what is its reported Activity?
Found: 66.6

Lookup: For COc1ccc(C(C)=O)cc1NC(=O)c1cc(C(=O)NO)ccc1Cl , what is its reported Activity?
Found: 89.1

Lookup: For CSc1ccc(C(=O)NO)cc1NC(=O)c1ccc(-c2ccccc2)cc1 , what is its reported Activity?
Found: 82.3

Lookup: For COc1ccc(C(=O)NO)cc1NC(=O)c1ccc(-c2ccccc2)cc1 , what is its reported Activity?
Found: 12.3

Lookup: For COc1ccc(C(=O)NO)cc1NC(=O)c1ccc(-c2ccccc2)cc1Cl , what is its reported Activity?
Found: 94.6

Lookup: For CCCOc1ccc(C(=O)Nc2cc(C(=O)NO)ccc2OC)cc1 , what is its reported Activity?
Found: 93.2

Lookup: For COc1ccc(C(C)=O)cc1NC(=O)c1cc(C(=O)NO)ccc1C , what is its reported Activity?
Found: 94.8

Lookup: For COc1ccc(C(=O)Nc2cc(C(=O)NO)ccc2OC)c(OC)c1 , what is its reported Activity?
Found: 88.4

Lookup: For COc1ccc(C(=O)NO)cc1NC(=O)c1nc2ccccc2[nH]1 , what is its reported Activity?
Found: 83.5

Lookup: For COc1ccc(C(=O)NO)cc1NC(=O)c1cccc2c1oc1ccccc12 , what is its reported Activity?
Found: 73

Lookup: For CCOc1ccc(C(C)=O)cc1NC(=O)c1cc(C(=O)NO)ccc1C , what is its reported Activity?
Found: 87.7

Lookup: For Cc1ccc(C(=O)NO)cc1NC(=O)c1cccc(OCc2ccccc2)c1 , what is its reported Activity?
Found: 81.4
